- testTarget: T1, human MIC-1 receptor (hGFRAL, GDNF family receptor alpha like) (human, UniProt Q6UXV0 19-394)
- T1 sequence (looked up): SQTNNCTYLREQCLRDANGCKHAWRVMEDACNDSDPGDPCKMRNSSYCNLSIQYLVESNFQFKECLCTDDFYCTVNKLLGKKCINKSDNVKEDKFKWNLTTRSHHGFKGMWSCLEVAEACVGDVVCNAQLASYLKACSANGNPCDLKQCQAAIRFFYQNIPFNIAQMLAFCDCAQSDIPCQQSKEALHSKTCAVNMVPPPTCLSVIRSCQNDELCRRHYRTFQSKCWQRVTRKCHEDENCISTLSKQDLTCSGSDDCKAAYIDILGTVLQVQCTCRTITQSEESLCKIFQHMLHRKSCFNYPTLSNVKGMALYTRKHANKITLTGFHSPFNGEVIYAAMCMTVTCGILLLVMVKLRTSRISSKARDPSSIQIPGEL
- testName: cell-based or functional assay
measurementName: pERK EC50 (nM)

Past entries and their recorded results:
* AAPEDEETPEQEGSGSGSGSGS-MIC-1-Δ1-3 (ligand) AAPEDEETPEQEGSGSGSGSGSGDHCPLGPGRCCRLHTVRASLEDLGWADWVLSPREVQVTMCIGACPSQFRAANMHAQIKTSLHRLKPDTVPAPCCVPASYNPMVLIQKTDTGVSLQTYDDLLAKDCHCI | 0.5
* AAPDEGTEEETEGSGSGSGSGS-MIC-1-Δ1-3 (ligand) AAPDEGTEEETEGSGSGSGSGSGDHCPLGPGRCCRLHTVRASLEDLGWADWVLSPREVQVTMCIGACPSQFRAANMHAQIKTSLHRLKPDTVPAPCCVPASYNPMVLIQKTDTGVSLQTYDDLLAKDCHCI | 0.5

[A] (SEPATSGSETPG)2-MIC-1-Δ1-3 (ligand) SEPATSGSETPGSEPATSGSETPGGDHCPLGPGRCCRLHTVRASLEDLGWADWVLSPREVQVTMCIGACPSQFRAANMHAQIKTSLHRLKPDTVPAPCCVPASYNPMVLIQKTDTGVSLQTYDDLLAKDCHCI
[B] MIC-1(R2A, N3E, R21E) (ligand) AAEGDHCPLGPGRCCRLHTVEASLEDLGWADWVLSPREVQVTMCIGACPSQFRAANMHAQIKTSLHRLKPDTVPAPCCVPASYNPMVLIQKTDTGVSLQTYDDLLAKDCHCI
Prompt: Hi there! Just curious which has the higher pERK EC50 (nM) between A and B . Give the label under which the chosen entry appears.
Response: B
